Procedure summary: Noncompetitive inhibition of P-gp-mediated doxorubicin transport in multidrug-resistant human LCC-6 cells after 150 mins by dixon plot analysis
Format: cell-based
In this section we review reported pKi values for a set of compounds.
Scale explanation: pKi corresponds to minus log10 of a concentration expressed in moles per litre.

Structure | pKi
COc1ccc(C(=O)CN2C(=O)C(c3ccc(OC)c(OC)c3)=C(c3ccc(OC)c(OC)c3)C2=O)cc1 | 5.27

-- ask Name the recorded pKi for `COc1ccc(C2=C(c3ccc(OC)c(OC)c3)C(=O)N(Cc3cc(OC)c(OC)c(OC)c3)C2=O)cc1OC` .
-- reply 5.26

---

System: L929
Procedure summary: Cytotoxicity against mouse L929 cells after 3 days by MTS assay
Assay type: cell-based
Condition info: L929, 72 h
pIC50: −log10 of the molar value.
Entries and their pIC50 values follow.

Past entries and their recorded results:
Structure | Obs value
COc1ccc(CCN2C(=O)C(c3ccc(OC)c(OC)c3)=C(c3ccc(OC)c(OC)c3)C2=O)cc1 | 4.67
COc1ccc(C2=C(c3ccc(OC)c(OC)c3)C(=O)N(CCN3C(=O)C(c4ccc(OC)c(OC)c4)=C(c4ccc(OC)c(OC)c4)C3=O)C2=O)cc1OC | < 4.00
COc1ccc(CN2C(=O)C(c3ccc(OC)c(OC)c3)=C(c3ccc(OC)c(OC)c3)C2=O)cc1 | < 4.00

Continue with the next compound.
-- ask Item: `COc1ccc(-c2cn(Cc3cc(OC)c(OC)c(OC)c3)c(OCc3cc(OC)c(OC)c(OC)c3)c2-c2ccc(OC)c(OC)c2)cc1OC` Test system: L929 Read-out: pIC50 Value: ?
-- reply < 4.00
